B1: Membrane-associated guanylate kinase, WW and PDZ domain-containing protein 2, residues 296 to 340; numbered along this chain, Q86UL8 (parent)
chain: EDNEEPDPLPDNWEMAYTEKGEVYFIDHNTKTTSWLDPRLAKKAK

- Variants of: B1
- test protocol: abundance fitness (aPCA) (normalised: wild type 0, dead -1); higher = more abundant; growth selection in yeast, the domain comes from the species named
- settings: Homo sapiens
param class (str): category from abundance fitness; see ranges lower band: < -0.4; central band: ≥ -0.4 and < -0.03; upper band: ≥ -0.03

See these solved cases before continuing.
{"columns": ["variant annotation", "discrete label"],
 "data": [
  ["W35P", "lower band"],
  ["T30A", "central band"],
  ["K43A", "upper band"],
  ["K31L", "central band"],
  ["D11A", "upper band"],
  ["E14Q", "upper band"],
  ["T30C", "central band"],
  ["K20P", "central band"],
  ["R39Y", "lower band"],
  ["T32C", "upper band"]
]}

[ask] Which abundance fitness category applies to "V23W" here?
[reply] central band

[ask] Which abundance fitness category applies to "D7G" here?
[reply] upper band
